Target: HLA-A*02 (human)
Test: UV peptide-exchange ELISA, yield grade
attribute.measured: peptide exchange yield

Problem: Query (binder): ILLKNLVTI [ILLKNLVTI (SEQ ID NO: 108)] ; field requested: peptide exchange yield
Result: 20 to 49%

Problem: Query (binder): GLCERLVSL [GLCERLVSL (SEQ ID NO: 249)] ; field requested: peptide exchange yield
Result: ≥ 75%

Problem: Query (binder): NALDKVLSV [NALDKVLSV (SEQ ID NO: 81)] ; field requested: peptide exchange yield
Result: 50 to 75%

Problem: Query (binder): TLTSLLAQA [TLTSLLAQA (SEQ ID NO: 157)] ; field requested: peptide exchange yield
Result: 50 to 75%

Problem: Query (binder): GLYTDPCGV [GLYTDPCGV (SEQ ID NO: 257)] ; field requested: peptide exchange yield
Result: ≥ 75%

Problem: Query (binder): KMVGLVVAI [KMVGLVVAI (SEQ ID NO: 53)] ; field requested: peptide exchange yield
Result: 50 to 75%

Problem: Query (binder): LLYPEPWSV [LLYPEPWSV (SEQ ID NO: 1)] ; field requested: peptide exchange yield
Result: ≥ 75%

Problem: Query (binder): QLWQFLVTL [QLWQFLVTL (SEQ ID NO: 118)] ; field requested: peptide exchange yield
Result: 50 to 75%

Problem: Query (binder): FLLPTGAEA [FLLPTGAEA (SEQ ID NO: 139)] ; field requested: peptide exchange yield
Result: 20 to 49%

Problem: Query (binder): VTPVTVSAV [VTPVTVSAV (SEQ ID NO: 120)] ; field requested: peptide exchange yield
Result: < 20%

Problem: Query (binder): ALFENTPKA [ALFENTPKA (SEQ ID NO: 41)] ; field requested: peptide exchange yield
Result: 20 to 49%

Problem: Query (binder): WLYGEDHQI [WLYGEDHQI (SEQ ID NO: 242)] ; field requested: peptide exchange yield
Result: 20 to 49%

Problem: Query (binder): ALLAKILQI [ALLAKILQI (SEQ ID NO: 138)] ; field requested: peptide exchange yield
Result: 50 to 75%

Problem: Query (binder): KLMPGTYTL [KLMPGTYTL (SEQ ID NO: 4)] ; field requested: peptide exchange yield
Result: ≥ 75%

Problem: Query (binder): ALLPRLHQL [ALLPRLHQL (SEQ ID NO: 133)] ; field requested: peptide exchange yield
Result: ≥ 75%

Problem: Query (binder): LLVSHLYLV [LLVSHLYLV (SEQ ID NO: 96)] ; field requested: peptide exchange yield
Result: 20 to 49%

Problem: Query (binder): SLFPDSLIV [SLFPDSLIV (SEQ ID NO: 64)] ; field requested: peptide exchange yield
Result: 20 to 49%

Problem: Query (binder): FLDKVLVAA [FLDKVLVAA (SEQ ID NO: 141)] ; field requested: peptide exchange yield
Result: 50 to 75%

Problem: Query (binder): ALLGTKILL [ALLGTKILL (SEQ ID NO: 105)] ; field requested: peptide exchange yield
Result: 50 to 75%

Problem: Query (binder): AVIKFLELL [AVIKFLELL (SEQ ID NO: 75)] ; field requested: peptide exchange yield
Result: 50 to 75%

Problem: Query (binder): QLIQTLHAV [QLIQTLHAV (SEQ ID NO: 114)] ; field requested: peptide exchange yield
Result: 50 to 75%
